target: UniProtKB P31424; experiment: pCREB (Ser133) levels in primary cultures of rat cortical neurons; format: cell-based; details: rat cerebral cortex neurons; in the presence of GET73 100 nM; read-out: EC50 of L-quisqualate, pCREB levels
measurement.label: EC50 (nM)
One number for each entry, in nM.

q: For the compound shown here, N[C@@H](Cn1oc(=O)[nH]c1=O)C(=O)O [L-quisqualate] , give the reported EC50.
a: 11

###

target: mGluR5 (Rattus norvegicus); test: pCREB (Ser133) levels in primary cultures of rat cortical neurons; assay type: cell-based; details: rat cerebral cortex neurons; GET73 0 (absence); read-out: EC50 of L-quisqualate, pCREB levels
Sequence (P31424 21-875 limits assumed): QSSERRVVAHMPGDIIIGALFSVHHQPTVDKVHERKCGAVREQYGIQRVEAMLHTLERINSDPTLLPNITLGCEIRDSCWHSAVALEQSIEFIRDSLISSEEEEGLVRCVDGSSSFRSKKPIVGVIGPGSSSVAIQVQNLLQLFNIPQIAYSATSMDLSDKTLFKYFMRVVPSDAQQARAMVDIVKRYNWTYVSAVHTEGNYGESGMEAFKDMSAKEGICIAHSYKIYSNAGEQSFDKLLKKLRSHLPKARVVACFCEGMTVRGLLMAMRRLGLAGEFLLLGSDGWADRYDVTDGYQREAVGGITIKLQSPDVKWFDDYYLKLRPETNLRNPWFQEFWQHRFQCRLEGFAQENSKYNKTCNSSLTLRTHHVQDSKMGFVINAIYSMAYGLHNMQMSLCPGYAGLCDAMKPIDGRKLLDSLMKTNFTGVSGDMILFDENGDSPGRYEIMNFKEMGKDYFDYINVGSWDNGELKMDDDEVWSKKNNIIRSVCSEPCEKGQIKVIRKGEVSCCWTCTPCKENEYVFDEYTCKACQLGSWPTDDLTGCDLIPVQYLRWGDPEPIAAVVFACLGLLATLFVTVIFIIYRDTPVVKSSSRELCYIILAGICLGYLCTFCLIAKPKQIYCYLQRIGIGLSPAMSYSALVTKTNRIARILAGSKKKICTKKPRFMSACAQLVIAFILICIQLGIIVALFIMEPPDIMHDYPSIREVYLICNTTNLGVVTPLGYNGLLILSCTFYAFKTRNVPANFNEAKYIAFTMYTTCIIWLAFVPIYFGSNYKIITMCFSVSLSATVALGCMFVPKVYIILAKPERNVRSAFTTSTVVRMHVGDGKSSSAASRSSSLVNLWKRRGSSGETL
measurement.label: EC50
Answer with the number, then the unit.

q: For the molecule shown here, N[C@@H](Cn1oc(=O)[nH]c1=O)C(=O)O [L-quisqualate] , give the reported EC50.
a: 8.8 nM
